Target: MATE1 (Homo sapiens)
Sequence (Q96FL8 whole entry): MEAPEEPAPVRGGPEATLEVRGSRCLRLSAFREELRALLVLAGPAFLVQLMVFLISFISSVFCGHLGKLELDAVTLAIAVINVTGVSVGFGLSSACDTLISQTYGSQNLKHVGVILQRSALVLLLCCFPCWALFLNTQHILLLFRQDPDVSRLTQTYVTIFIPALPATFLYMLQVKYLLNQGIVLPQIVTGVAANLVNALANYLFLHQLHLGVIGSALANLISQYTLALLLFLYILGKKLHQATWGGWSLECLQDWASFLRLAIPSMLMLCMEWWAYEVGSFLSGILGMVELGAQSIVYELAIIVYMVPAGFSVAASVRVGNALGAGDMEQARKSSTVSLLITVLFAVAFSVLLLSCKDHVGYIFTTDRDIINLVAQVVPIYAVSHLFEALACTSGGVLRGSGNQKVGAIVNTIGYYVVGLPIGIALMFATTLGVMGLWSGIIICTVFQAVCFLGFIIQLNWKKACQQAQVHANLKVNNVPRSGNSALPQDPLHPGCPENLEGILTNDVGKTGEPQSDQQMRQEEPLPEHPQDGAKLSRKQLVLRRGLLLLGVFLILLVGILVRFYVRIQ
Assay: Uptake ratio in MATE1-overexpressing HEK293 cells vs empty vector (2.5 μM, 1 min, HPLC-MS/MS)
Type: cell-based
Conditions: fold uptake over empty vector, 2.5 μM, 1 min
Where a SMILES comes first, the peptide text is derived from it.
I'd appreciate it if you could supply MATE1 ratio values for the items below.
Form field (numeric): enter value without unit.

input: Look up and state reported MATE1 ratio for CC(C[N+](C)(C)C)OC(N)=O (stereo not drawn) [Bethanechol]
output: 0.23

input: Look up and state reported MATE1 ratio for Nc1ccc(S(=O)(=O)c2ccc(N)cc2)cc1 [Dapsone]
output: 0.89

input: Look up and state reported MATE1 ratio for CNCc1ccc(-c2[nH]c3cc(F)cc4c3c2CCNC4=O)cc1 [Rucaparib]
output: 3.71

input: Look up and state reported MATE1 ratio for CC/C(=C(\c1ccc(O)cc1)c1ccc(OCCNC)cc1)c1ccccc1 [Endoxifen]
output: 1.30

input: Look up and state reported MATE1 ratio for C[N+]1(CCC(C(N)=O)(c2ccccc2)c2ccccc2)CCCCC1 [Fenpiverinium]
output: 15.19

input: Look up and state reported MATE1 ratio for [H]/N=C(/N)N/C(=N/[H])NCCc1ccccc1 [Phenformin]
output: 19.54

input: Look up and state reported MATE1 ratio for N[C@@H](Cc1ccc(O)c(O)c1)C(=O)O [Levodopa]
output: 0.71

input: Look up and state reported MATE1 ratio for N[C@@H]1CON=C1O [Cycloserine (L), Cycloserine]
output: 1.19

input: Look up and state reported MATE1 ratio for CNC[C@H](O)c1cccc(O)c1 [Phenylephrine (L), Phenylephrine]
output: 18.71

input: Look up and state reported MATE1 ratio for CNCCc1ccccn1 [Betahistine]
output: 1.90

input: Look up and state reported MATE1 ratio for CCCCCC(=O)OC(CC(=O)[O-])C[N+](C)(C)C (stereo not drawn) [Hexanoylcarnitine]
output: 1.02

input: Look up and state reported MATE1 ratio for CCC(C)C(=O)OC(CC(=O)[O-])C[N+](C)(C)C (stereo not drawn) [2-Methylbutyrylcarnitine]
output: 0.61

input: Look up and state reported MATE1 ratio for NCCCNCCCCNCCCN [Spermine]
output: 1.13

input: Look up and state reported MATE1 ratio for COC(=O)[C@H](Cc1ccccc1)NC(=O)[C@@H](N)CC(=O)O [Aspartame] (HELM PEPTIDE1{D.F.[CO[*:1]]}$$$$V2.0)
output: 1.26

input: Look up and state reported MATE1 ratio for CC(C)NCC(O)COc1cccc2[nH]ccc12 (stereo not drawn) [Pindolol]
output: 1.84

input: Look up and state reported MATE1 ratio for COc1cc(C(O)CN)ccc1O (stereo not drawn) [Normetanephrine]
output: 1.80

input: Look up and state reported MATE1 ratio for CCN1CCC[C@H]1CNC(=O)c1c(OC)ccc(Br)c1OC [Remoxipride]
output: 1.19

input: Look up and state reported MATE1 ratio for CN1C(=O)CC[C@H]1c1cccnc1 [Cotinine]
output: 1.11

input: Look up and state reported MATE1 ratio for CC(C)(C)NCC(O)c1ccc(O)c(CO)c1 [Salbutamol (R), Salbutamol]
output: 6.98

input: Look up and state reported MATE1 ratio for Cc1ncc(CO)c(CO)c1O [Pyridoxin]
output: 2.33

input: Look up and state reported MATE1 ratio for CCN(CC)CCNC(=O)c1ccc(NS(C)(=O)=O)cc1 [Sematilide]
output: 19.10

input: Look up and state reported MATE1 ratio for CC(=O)c1cc2cccc(OCC(O)CNC(C)C)c2o1 (stereo not drawn) [Befunolol]
output: 1.39

input: Look up and state reported MATE1 ratio for CN(C)CC(c1ccc(O)cc1)C1(O)CCCCC1 (stereo not drawn) [Desvenlafaxine]
output: 1.12

input: Look up and state reported MATE1 ratio for CCOC(=O)c1ccc(OC(=O)CCCCCNC(=N)N)cc1 [Gabexate]
output: 5.78

input: Look up and state reported MATE1 ratio for C[N+](C)(C)CCO [Choline]
output: 1.13

input: Look up and state reported MATE1 ratio for CC(C1=C(CCN(C)C)Cc2ccccc21)c1ccccn1 (stereo not drawn) [Dimethindene]
output: 0.99

input: Look up and state reported MATE1 ratio for Cc1cc(C(C)(C)C)c(O)c(C)c1CC1=NCCN1 [Oxymetazoline]
output: 5.22

input: Look up and state reported MATE1 ratio for Nc1nc(NC2CC2)c2ncn([C@H]3C=C[C@@H](CO)C3)c2n1 [Abacavir]
output: 0.94

input: Look up and state reported MATE1 ratio for COCCOC(=O)C1=C(C)NC(C)=C(C(=O)OC(C)C)C1c1cccc([N+](=O)[O-])c1 (stereo not drawn) [Nimodipine]
output: 1.33

input: Look up and state reported MATE1 ratio for CC(C)C[C@H](NC(=O)[C@H](Cc1ccccc1)NC(=O)c1cnccn1)B(O)O [Bortezomib]
output: 1.20
